Recorded inhibition by entry
# assayed target: Serine/threonine-protein kinase 10 (Homo sapiens)
# applied conditions: at 0.1 µM
Numbers only here, please. The scale is %.

Lab book: inhibition of `COc1c(C(N)=O)cc(-c2ccc(Cl)cc2)cc1-c1ccc(S(N)(=O)=O)cc1` noted as 5.14

The compound `CS(=O)(=O)CCNCc1ccoc1-c1ccc2ncnc(Nc3ccc(OCc4ccccc4)cc3)c2c1` showed inhibition equal to -0.07

According to the records, this compound `Cc1cc(O)cc(C)c1/C=C/c1cncc(C(N)=O)c1` displays inhibition of 4.97

----------
# assayed target: Serine/threonine-protein kinase 10 (Homo sapiens);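 further: mean percent inhibition of LOK (STK10)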
# applied conditions: at 0.1 µM
inhibition: recorded values
Output spec: scalar in %, unitless text.

Completed entries (count: 4):
Cc1nnc(-c2cccc(-c3ccc(C(=O)NCC4CC4)cc3)c2)o1 :: 6.23
FC(F)(F)CNc1nccc(-c2cnn3ncccc23)n1 :: 2.56
NS(=O)(=O)c1ccc(N/N=C2\C(=O)Nc3cccc(CCc4ccncc4)c32)cc1 :: -0.95
CCS(=O)(=O)c1ccc(OC)c(Nc2ncc(-c3cccc(F)c3)o2)c1 :: 12

Record `COc1cccc(-n2ncc3c(N/N=C/c4ccc(C(=O)NCCN(C)C)cc4)ncnc32)c1` , field inhibition: 23

Sample `NC(=O)c1ccc2c(-c3ccnc(NCCCO)n3)c(-c3ccc(F)cc3)nn2c1` ; inhibition observed: 5.04

Measured inhibition of CC1=C(C(=O)Nc2ccc3[nH]ncc3c2)C(c2ccc(F)cc2)N=C(c2ccc(C(F)(F)F)nc2)N1 (configuration not stated) : 0.31

----------
# assayed target: Homeodomain-interacting protein kinase 1 (Homo sapiens);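 further: values are mean percent inhibition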
# applied conditions: at 1 µM
Item-by-item account of inhibition
The number alone won't do; follow it with the unit.

Guide cases for inhibition, answers given:
Cc1nnc(-c2cccc(-c3ccc(C(=O)NCC4CC4)cc3)c2)o1 :: 4.32%
CCCNc1cccc(-n2ncc3c(N/N=C/c4ccncc4)ncnc32)c1 :: 13.5%
c1ccc(-c2n[nH]cc2-c2ccnc(-c3ccc(OCCn4ccnc4)cc3)c2)nc1 :: -1.32%
c1cnn2ncc(-c3ccnc(NCCCN4CCOCC4)n3)c2c1 :: 6.02%

inhibition reading for `COc1ccccc1-c1cc(/C=C2\C(=O)Nc3ncc(Br)cc32)cc(Br)c1O` : 7.53%

Record `CNC(=O)c1sc(-n2cnc3cc(OC)c(OC)cc32)cc1OCc1ccccc1C(F)(F)F` . Reported inhibition: -1.76%

// recorded inhibition for `CS(=O)(=O)CCNCc1ccoc1-c1ccc2ncnc(Nc3ccc(OCc4ccccc4)cc3)c2c1` : 0.14%

Noted for `N#Cc1cccc(Nc2ncc(-c3ccccc3)o2)c1` : its inhibition reads 20.2%

GET /value?item= `NC(=O)c1ccc2c(-c3ccnc(NCCCO)n3)c(-c3ccc(F)cc3)nn2c1` &field=inhibition returns 4.85%

What the record says about `Cc1cc(O)cc(C)c1/C=C/c1cncc(C(N)=O)c1` : inhibition is 3.38%

----------
# assayed target: Mitogen-activated protein kinase kinase kinase kinase 4 (Homo sapiens) (UniProt O95819);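 further: reported figure is an averaged inhibition value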
# Sequence (O95819 2-1239 limits assumed): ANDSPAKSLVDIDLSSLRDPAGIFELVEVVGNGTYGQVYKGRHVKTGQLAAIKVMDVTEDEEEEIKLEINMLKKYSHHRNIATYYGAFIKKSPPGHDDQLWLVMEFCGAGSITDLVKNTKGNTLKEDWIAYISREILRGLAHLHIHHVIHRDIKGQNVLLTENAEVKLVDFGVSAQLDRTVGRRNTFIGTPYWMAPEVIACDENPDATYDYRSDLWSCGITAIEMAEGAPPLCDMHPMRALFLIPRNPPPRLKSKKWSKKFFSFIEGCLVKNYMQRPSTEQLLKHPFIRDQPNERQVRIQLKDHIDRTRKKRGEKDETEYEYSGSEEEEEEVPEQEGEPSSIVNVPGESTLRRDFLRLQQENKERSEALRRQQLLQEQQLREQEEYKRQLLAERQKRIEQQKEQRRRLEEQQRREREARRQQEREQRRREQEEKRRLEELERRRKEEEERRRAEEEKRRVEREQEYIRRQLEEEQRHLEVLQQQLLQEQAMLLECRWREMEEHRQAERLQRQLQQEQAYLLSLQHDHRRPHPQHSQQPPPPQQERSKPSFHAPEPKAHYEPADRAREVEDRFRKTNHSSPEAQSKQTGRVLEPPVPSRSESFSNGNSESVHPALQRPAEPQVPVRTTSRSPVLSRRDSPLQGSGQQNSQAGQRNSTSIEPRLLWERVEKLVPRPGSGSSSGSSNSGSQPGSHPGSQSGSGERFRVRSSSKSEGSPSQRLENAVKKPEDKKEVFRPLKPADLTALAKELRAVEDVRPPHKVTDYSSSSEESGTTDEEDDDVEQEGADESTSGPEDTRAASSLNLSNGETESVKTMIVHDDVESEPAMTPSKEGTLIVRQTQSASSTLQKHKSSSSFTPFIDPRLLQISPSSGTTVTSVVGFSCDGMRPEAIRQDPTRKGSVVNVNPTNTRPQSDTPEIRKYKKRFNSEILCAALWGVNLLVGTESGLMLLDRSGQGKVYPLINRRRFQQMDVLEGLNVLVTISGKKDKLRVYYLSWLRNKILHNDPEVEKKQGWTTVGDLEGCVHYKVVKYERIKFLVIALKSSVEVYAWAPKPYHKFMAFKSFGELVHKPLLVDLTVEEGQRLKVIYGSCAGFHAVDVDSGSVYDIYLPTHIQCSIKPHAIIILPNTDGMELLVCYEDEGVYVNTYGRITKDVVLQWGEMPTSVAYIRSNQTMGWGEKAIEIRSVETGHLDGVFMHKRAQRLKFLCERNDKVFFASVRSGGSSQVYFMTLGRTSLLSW
# applied conditions: at 1 µM
Tag: true if measured inhibition is not below 40%, false if it is.

As a guide, the following entries are already answered.
Cc1ccc(-c2cc3c(NC(=O)C4CC4)ncnc3o2)cc1 :: false
CCCNc1cccc(-n2ncc3c(N/N=C/c4ccncc4)ncnc32)c1 :: true
Cn1c(-c2nonc2N)nc2cnccc21 :: false
CNC(=O)c1cncc(/C=C/c2ccccc2C)c1 :: false

inhibition >= 40% for `COc1ccc2ncn(-c3cc(O[C@H](C)c4ccccc4C(F)(F)F)c(C(N)=O)s3)c2c1` ? false

Evaluate `c1ccc(-c2n[nH]cc2-c2ccnc(-c3ccc(OCCn4ccnc4)cc3)c2)nc1` : inhibition at minimum 40%? true

// inclusive: inhibition at least 40%? input: `O=C(O[C@H]1CN[C@H](C#Cc2cc3ncnc(Nc4ccc(OCc5cccc(F)c5)c(Cl)c4)c3s2)C1)N1CCOCC1` false

----------
# assayed target: Rho-associated protein kinase 2 (Homo sapiens) (UniProt O75116)
# Sequence (O75116 whole entry, looked up): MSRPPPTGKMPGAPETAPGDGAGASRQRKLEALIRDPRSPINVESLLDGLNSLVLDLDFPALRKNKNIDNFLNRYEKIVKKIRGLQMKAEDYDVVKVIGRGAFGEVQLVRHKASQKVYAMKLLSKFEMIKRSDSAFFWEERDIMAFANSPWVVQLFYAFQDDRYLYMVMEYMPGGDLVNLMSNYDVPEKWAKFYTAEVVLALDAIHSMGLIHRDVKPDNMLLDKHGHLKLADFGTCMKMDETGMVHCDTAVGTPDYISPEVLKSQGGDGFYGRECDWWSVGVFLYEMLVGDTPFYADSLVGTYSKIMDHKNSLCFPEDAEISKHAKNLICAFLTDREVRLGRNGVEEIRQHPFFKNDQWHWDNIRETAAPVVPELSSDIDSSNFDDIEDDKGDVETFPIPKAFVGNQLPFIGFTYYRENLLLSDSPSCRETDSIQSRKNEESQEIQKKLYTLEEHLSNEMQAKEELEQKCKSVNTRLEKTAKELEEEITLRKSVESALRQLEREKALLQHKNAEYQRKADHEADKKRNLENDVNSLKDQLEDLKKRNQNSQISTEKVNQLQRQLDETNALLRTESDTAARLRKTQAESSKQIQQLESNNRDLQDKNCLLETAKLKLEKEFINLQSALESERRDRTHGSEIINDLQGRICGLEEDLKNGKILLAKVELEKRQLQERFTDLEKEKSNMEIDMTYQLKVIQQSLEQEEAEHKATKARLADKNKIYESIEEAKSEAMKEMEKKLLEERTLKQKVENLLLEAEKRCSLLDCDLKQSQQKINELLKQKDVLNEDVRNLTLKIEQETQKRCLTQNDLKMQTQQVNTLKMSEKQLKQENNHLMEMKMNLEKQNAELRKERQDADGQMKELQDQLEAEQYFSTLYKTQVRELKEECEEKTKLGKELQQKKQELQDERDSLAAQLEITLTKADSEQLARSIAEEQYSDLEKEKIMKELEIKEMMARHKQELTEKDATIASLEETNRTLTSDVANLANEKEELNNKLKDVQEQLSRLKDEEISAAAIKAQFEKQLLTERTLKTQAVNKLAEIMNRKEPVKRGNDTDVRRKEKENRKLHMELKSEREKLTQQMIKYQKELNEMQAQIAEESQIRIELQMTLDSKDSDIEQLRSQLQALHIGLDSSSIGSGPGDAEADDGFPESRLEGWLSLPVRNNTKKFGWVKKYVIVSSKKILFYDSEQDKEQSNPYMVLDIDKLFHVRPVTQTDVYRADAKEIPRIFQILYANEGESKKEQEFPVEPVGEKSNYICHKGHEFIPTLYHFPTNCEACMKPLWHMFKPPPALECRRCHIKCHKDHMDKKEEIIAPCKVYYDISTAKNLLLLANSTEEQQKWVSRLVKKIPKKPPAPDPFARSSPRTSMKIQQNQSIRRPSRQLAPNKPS
# applied conditions: at 1 µM
# Description: GSK_PKIS: ROCK2 mean inhibition at 1 uM [Nanosyn]
Recorded inhibition values for a group of molecules are listed next.
Write the answer as a number in %, unit excluded.

In plain terms, `O=C1Nc2ccccc2/C1=C1\CCc2cc(O)ccc21` has a documented inhibition of 3.95

----------
Measured inhibition, listed per entry.
# assayed target: Cyclin-dependent kinase 6 (Homo sapiens);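 further: mean percent inhibition of the kinase bound to its cyclin partner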
# applied conditions: at 1 µM
Give the value in % but do not write % after it.

Here is how some compounds turned out for inhibition.
O=C(Nc1n[nH]c2nnc(-c3cccnc3)cc12)C1CC1 :: 64.6
CNC(=O)c1cncc(/C=C/c2ccccc2C)c1 :: 4.46
Cc1nnc(-c2cccc(-c3ccc(C(=O)NCC4CC4)cc3)c2)o1 :: 4.2
COc1ccc2ncn(-c3cc(O[C@H](C)c4ccccc4C(F)(F)F)c(C(N)=O)s3)c2c1 :: -1.08
N#Cc1cccc(Nc2ncc(-c3ccccc3)o2)c1 :: 63

Form: compound = `CN(c1ccc(NC(=O)NCCN2CCOCC2)cc1)c1ccnc(Nc2ccc(CS(C)(=O)=O)cc2)n1` ; inhibition = 4.21

Lab book: inhibition of `CS(=O)(=O)CCNCc1ccc(-c2ccc3ncnc(Nc4ccc(OCc5ccccc5)cc4)c3c2)o1` noted as 1.12

// field: inhibition; key: `Cc1c2ccc(N(C)c3ccnc(Nc4cccc(S(N)(=O)=O)c4)n3)cc2nn1C` ; value = 15.3

The recorded inhibition for `Cn1c(-c2nonc2N)nc2cnccc21` is 1.64

// recorded inhibition for `COC(=O)Nc1nc2cc(Oc3ccc(NC(=O)Nc4ccccc4)cc3)ccc2[nH]1` : -1.23

----------
# assayed target: Serine/threonine-protein kinase Nek9 (Homo sapiens);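 further: reported value is the mean percent inhibition of NEK9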
# applied conditions: at 0.1 µM
measured property: inhibition (%)
State just the number; it will be interpreted in %.

Entry `CS(=O)(=O)CCNCc1ccoc1-c1ccc2ncnc(Nc3ccc(OCc4ccccc4)cc3)c2c1` , inhibition reported as -0.36

Consider `COc1ccc2ncn(-c3cc(O[C@H](C)c4ccccc4C(F)(F)F)c(C(N)=O)s3)c2c1` . Its measured inhibition is 35.9

Reported inhibition of `N#Cc1ccc2c(-c3ccnc(NC4CC4)n3)c(-c3ccc(F)cc3)nn2c1` : 3.27

// inhibition lookup, compound = `COc1cc(N2CCN(C(C)C)CC2)ccc1Nc1nc(Nc2cccc3ncccc23)c2cc[nH]c2n1` , result: 4.56

Input `CN1CCC(n2cnc(-c3ccc(F)cc3)c2-c2ccnc(NCCO)n2)CC1` . Output inhibition: 5.09

----------
# assayed target: Homeodomain-interacting protein kinase 4 (Homo sapiens) (UniProt Q8NE63);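 further: values are mean percent inhibition of HIPK4 from the GSK PKIS kinase screen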
# Sequence (whole entry): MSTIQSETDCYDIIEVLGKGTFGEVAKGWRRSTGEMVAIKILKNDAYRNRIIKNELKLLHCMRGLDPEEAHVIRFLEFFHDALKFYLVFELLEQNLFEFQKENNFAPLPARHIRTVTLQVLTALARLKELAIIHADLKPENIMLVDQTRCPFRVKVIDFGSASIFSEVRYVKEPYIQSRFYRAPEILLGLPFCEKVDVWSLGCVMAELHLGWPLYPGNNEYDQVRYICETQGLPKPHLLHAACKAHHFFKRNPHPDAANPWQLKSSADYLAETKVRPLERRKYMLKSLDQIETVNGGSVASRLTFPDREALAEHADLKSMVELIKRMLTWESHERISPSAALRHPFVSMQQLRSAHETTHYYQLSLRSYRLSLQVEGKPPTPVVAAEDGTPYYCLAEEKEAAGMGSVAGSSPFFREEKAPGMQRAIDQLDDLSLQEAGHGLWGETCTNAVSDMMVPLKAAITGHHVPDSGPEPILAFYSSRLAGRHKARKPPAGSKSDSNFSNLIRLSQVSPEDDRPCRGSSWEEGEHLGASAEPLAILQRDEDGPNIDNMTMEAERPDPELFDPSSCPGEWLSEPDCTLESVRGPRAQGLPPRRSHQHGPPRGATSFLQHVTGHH
# applied conditions: at 1 µM
measured property: inhibition (%)
Entry rule: numbers only, all in %.

CNC(=O)c1ncccc1Nc1nc(Nc2cc3c(cc2OC)CCCN3C(=O)CN(C)C)nc2[nH]ccc12 :: 13.5
Fc1cccc(COc2ccc(Nc3ncncc3C#Cc3ccccc3)cc2Cl)c1 :: 1.7
CS(=O)(=O)CCNCc1ccc(-c2ccc3ncnc(Nc4ccc(OCc5cccc(C(F)(F)F)c5)cc4)c3c2)o1 :: 7.06
CNC(=O)c1sc(-n2cnc3cc(OC)c(OC)cc32)cc1OCc1ccccc1C(F)(F)F :: 7.08
Cc1cc(O)cc(C)c1/C=C/c1cncc(C(N)=O)c1 :: 1.54

The molecule `Cc1ccc(-c2cc3c(NC(=O)C4CC4)ncnc3o2)cc1` showed inhibition equal to 7.28

// field: inhibition; key: `CS(=O)(=O)CCNCc1ccoc1-c1ccc2ncnc(Nc3ccc(OCc4ccccc4)cc3)c2c1` ; value = 2.87

----------
# assayed target: Tyrosine-protein kinase Blk (Homo sapiens);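 further: mean percent inhibition of BLK kinase activity, from GSK PKIS kinase inhibitor set profiling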
# applied conditions: at 1 µM
inhibition overview
Could you give me the number in %? Just the number is fine.

Example entries and their recorded answers appear below.
Cn1c(-c2nonc2N)nc2cnccc21 :: 0.41
N#Cc1ccc2c(-c3ccnc(NC4CC4)n3)c(-c3ccc(F)cc3)nn2c1 :: -3.55
Cc1ccc(-c2cc3c(NC(=O)C4CC4)ncnc3o2)cc1 :: 12.7
Cc1cc(O)cc(C)c1/C=C/c1cncc(C(N)=O)c1 :: 23
COc1cc2c(cc1Nc1nc(Nc3cccc(F)c3C(N)=O)c3cc[nH]c3n1)N(C(=O)CN1CCN(C(C)C)CC1)CC2 :: -0.42
CNC(=O)c1sc(-n2cnc3cc(OC)c(OC)cc32)cc1OCc1ccccc1C(F)(F)F :: 7.51

Reported inhibition of `CCOc1ccc2c(-c3ccnc(Nc4cc(OC)cc(C(F)(F)F)c4)n3)cnn2n1` : 4.83

get_value(item= `Fc1cccc(COc2ccc(Nc3ncncc3C#Cc3ccccc3)cc2Cl)c1` , readout=inhibition) returns 3.19

Data point: `NC(=O)c1ccc2c(-c3ccnc(NCCCO)n3)c(-c3ccc(F)cc3)nn2c1` ; inhibition = 6.11

Documented inhibition of `COc1ccc2ncn(-c3cc(O[C@H](C)c4ccccc4C(F)(F)F)c(C(N)=O)s3)c2c1` : 2.3

For record `Cc1nnc(-c2cccc(-c3ccc(C(=O)NCC4CC4)cc3)c2)o1` the listed inhibition is 1.41

Notebook: `COc1cc(Nc2ncc(-c3ccccc3)o2)cc(OC)c1` , inhibition read as 20.1

Summary for this compound, `CCS(=O)(=O)c1ccc(OC)c(Nc2ncc(-c3cccc(C(C)=O)c3)o2)c1` : inhibition is 35.6

Briefly, inhibition measured for `COc1cccc(Nc2nccc(-c3cnn4ncccc34)n2)c1` : 14

// `CCCNc1cccc(-n2ncc3c(N/N=C/c4ccncc4)ncnc32)c1` : inhibition value = 62.9
